testTarget: Peroxisome proliferator-activated receptor alpha (Mus musculus) (UniProt P23204)
Sequence (P23204 whole entry): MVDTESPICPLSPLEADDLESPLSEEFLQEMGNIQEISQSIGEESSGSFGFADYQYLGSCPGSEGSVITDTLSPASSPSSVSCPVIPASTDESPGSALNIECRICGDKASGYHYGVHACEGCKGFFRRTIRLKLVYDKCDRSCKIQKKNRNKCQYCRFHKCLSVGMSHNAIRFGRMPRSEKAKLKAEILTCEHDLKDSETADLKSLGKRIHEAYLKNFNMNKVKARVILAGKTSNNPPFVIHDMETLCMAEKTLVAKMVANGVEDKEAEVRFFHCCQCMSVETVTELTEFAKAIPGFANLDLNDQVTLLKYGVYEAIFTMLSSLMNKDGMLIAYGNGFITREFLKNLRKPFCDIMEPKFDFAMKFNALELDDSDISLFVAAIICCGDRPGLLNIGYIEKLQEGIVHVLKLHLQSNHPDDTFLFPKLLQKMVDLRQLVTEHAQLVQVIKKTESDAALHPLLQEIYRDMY
assayDetails: Agonist activity at mouse PPARalpha expressed in CV1 cells co-expressing tk-PPRE-luciferase vector assessed as transient transactivation at 20 uM after 24 hrs by luciferase reporter gene assay relative to GW0746
Format: functional, cell-based
protocolConditions: CV-1
Calls of active or inactive are those of the source. No cut-off for these calls is given here.
reportedEndpoint: Activity

// worked examples, Activity included
COC(=O)Cc1c[nH]c2ccc(OCCCN(C)c3nc4ccccc4o3)cc12 = inactive
CCn1cc(CC(=O)O)c2cc(OCCN(C)c3nc4ccccc4o3)ccc21 = inactive
CN(CCCOc1ccc2c(c1)c(CC(=O)O)cn2CC(=O)O)c1nc2ccccc2o1 = inactive
CN(CCOc1ccc2cc(C(=O)O)n(C)c2c1)c1nc2ccccc2s1 = 13.6%
COC(=O)Cc1cn(CC(=O)OC)c2ccc(OCCCN(C)c3nc4ccccc4o3)cc12 = inactive

[ask] Indicate its recorded Activity; the molecule in question is CN(CCOc1ccc2c(c1)c(CC(=O)O)cn2C)c1nc2ccccc2o1
[reply] 28%

[ask] Indicate its recorded Activity; the molecule in question is CCn1c(C(=O)O)cc2ccc(OCCN(C)c3nc4ccccc4o3)cc21
[reply] inactive

[ask] Indicate its recorded Activity; the molecule in question is CN(CCOc1ccc2cc(C(=O)O)n(Cc3ccccc3)c2c1)c1nc2ccccc2o1
[reply] 10%

[ask] Indicate its recorded Activity; the molecule in question is COC(=O)Cc1cn(Cc2ccc(F)cc2)c2ccc(OCCCN(C)c3nc4ccccc4o3)cc12
[reply] inactive

[ask] Indicate its recorded Activity; the molecule in question is CN(CCCOc1ccc2c(c1)c(CC(=O)O)cn2Cc1ccc(F)cc1)c1nc2ccccc2o1
[reply] 13.3%
